Consider the following variants; for each one, report its aptazyme ON/OFF ratio.
B1: Pistol ribozyme (parent)
chain: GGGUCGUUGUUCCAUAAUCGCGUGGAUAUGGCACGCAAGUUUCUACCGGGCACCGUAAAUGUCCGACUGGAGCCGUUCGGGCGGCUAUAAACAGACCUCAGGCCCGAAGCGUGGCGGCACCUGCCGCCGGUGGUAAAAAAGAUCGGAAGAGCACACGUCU

# Variants of: B1
# assay: aptazyme ON/OFF ratio, guanine; higher = stronger switching; co-transcriptional cleavage with and without guanine
Give bare numbers.

Example variants with recorded aptazyme ON/OFF ratio:
> print(dat)
                  variant.code  endpoint.result
1   U7A U8C G9C U10C U11G C13U             1.04
2  U7A U8A U10C U11G C12U C13U              1.3
3   U7A U8A G9C U11A C12G C13A             1.15
4      U7A U10A U11G C12A C13A             1.17
5           U8C U11C C12A C13G              1.4

Hi team, please reply with aptazyme ON/OFF ratio for each item in this list.
1. U7C G9C U10A U11C C12A C13A
2. G9U U10A U11C C12G
3. U7C G9A U11G C12G C13G
4. G9C U10A U11A C12A C13G

Found:
1. 1.08
2. 1.57
3. 1.21
4. 1.21

Hi team, please reply with aptazyme ON/OFF ratio for each item in this list.
1. U8A G9A U10G U11A C12A C13A
2. U7G U8A G9C U10G U11A C12G C13U
3. U7A G9U U10G U11G C13U
4. U8G G9U U10A U11A C12A C13G
5. U8A U11C C13A
6. U7A U8C U10G C12U

Found:
1.19
1.07
1.11
1.16
1.13
1.27

Hi team, please reply with aptazyme ON/OFF ratio for each item in this list.
1. U7G U8G G9A U10G U11G C12A C13U
2. U7G U8G G9U U10A U11C C12U C13U
3. U7C U8G G9C U10A U11C C12G

Found:
1. 1.17
2. 1.29
3. 1.15

Hi team, please reply with aptazyme ON/OFF ratio for each item in this list.
1. U8C U10G U11G C13U
2. G9C U10G C12U
3. U7G G9U U10A U11C C12A C13A
4. U7G U8G G9A U10C U11A C12A C13A
5. U8C G9U U10C U11C C13U
6. U7C G9U U10G C12A C13A

Found:
1: 1.22; 2: 1.47; 3: 1.24; 4: 1.2; 5: 1.04; 6: 1.09

Hi team, please reply with aptazyme ON/OFF ratio for each item in this list.
1. U8G G9A U10A U11C C12G
2. U7C U8C G9U U10A U11G
3. U7G U8C G9A U10G U11G C12A C13A
4. U7C U8A G9A C12G C13G
5. U7A U8A G9C U10C U11A C12A C13A
6. U7A U8C G9A U10G U11G C12A C13G

Found:
1.23
1.34
1.13
1.22
1.02
1.15

Hi team, please reply with aptazyme ON/OFF ratio for each item in this list.
1. U8C G9C U10C U11C C12G C13A
2. U7A G9U U11A C12U
3. U7C U8G G9A U10C U11A C12U C13G

Found:
1.12
1.34
1.05

Hi team, please reply with aptazyme ON/OFF ratio for each item in this list.
1. U7A U8A G9C U11A C12G
2. U7A U8A G9C U10G U11G C12U C13A
3. U7G G9U U10G U11G
4. U7A U8G G9U U10G C12G C13U
5. U7G U8C G9U U11G C13U
6. U8C U10A U11A C13G

Found:
1: 1.19; 2: 1.17; 3: 1.74; 4: 1.3; 5: 1.41; 6: 1.22

Hi team, please reply with aptazyme ON/OFF ratio for each item in this list.
1. U7C U8G G9A U10C U11A C13G
2. U8A G9C U10G U11G C12U
3. U7C U8A U11C C12A C13G
4. U7C G9C U10C U11A C12U C13G
5. U7G U8G G9A C12G C13G
6. G9U U11C C12G C13G
7. U7C U8C G9U U10C U11G C12A C13A

Found:
1.07
1.23
1.18
1.07
1.14
1.28
1.11
